B1: SNX3 (parent)
chain: FLRQLPFRGDDGIFDDNFIEERKQ

# Variants of: B1
# assay.notes: protein stability index of a GFP-peptide fusion (GPS, HEK-293T) (PSI 1-6); higher = more stable;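 further: lentivirally expressed fusions sorted by FACS into six bins by GFP to DsRed ratio, PSI derived from sequencing read proportions per bin multiplied by bin number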
# condition.parameters: c terminus: a fixed tail appended
# Lookup of reported protein stability index keyed by entry

# variant.name, protein stability index
records = [
    ("K23I", 2.47),
    ("Q4L", 1.91),
    ("D10W", 2.35),
    ("D11N", 3.01),
    ("L5N", 3.78),
    ("R8C", 2.33),
    ("L2Q", 3.07),
    ("F1Y", 4.18),
    ("E20I", 1.67),
    ("D16P", 3.4),
    ("G12H", 3.77),
    ("N17L", 2.28),
    ("E21H", 2.64),
    ("F18Y", 3.27),
    ("Q4C", 2.83),
    ("E21G", 2.49),
    ("R3H", 3.12),
    ("F18M", 3.79),
    ("L2Y", 4.46),
    ("D16Q", 3),
    ("E20F", 2.88),
    ("R3K", 3.43),
    ("F18A", 4.56),
    ("P6A", 2.22),
    ("R8S", 3.61),
    ("G12D", 3.67),
    ("F14M", 3.67),
    ("R3D", 3.45),
    ("E20V", 2.49),
    ("G9V", 3.08),
    ("P6D", 3.31),
    ("D10Y", 1.9),
    ("R3V", 2.98),
    ("L5F", 3.36),
    ("Q24W", 2.1),
    ("G12R", 3.1),
    ("F7V", 3.83),
]
